The measurements presented in this section are drawn from paper PMC3509171.

Molecular target: hOGT (312-1031) (Homo sapiens)
Each entry below carries its recorded pKd.
The scale used: pKd is minus the common logarithm of the concentration in molar units.

Solved cases (2 shown):
INSERT INTO results (molecule, experimental_value) VALUES
  ('CC(=O)N[C@H]1[C@@H](OP(=O)(O)O[P@](O)(=S)OC[C@H]2O[C@@H](n3ccc(=O)[nH]c3=O)[C@H](O)[C@@H]2O)O[C@H](CO)[C@@H](O)[C@@H]1O [compound 4, RP-αS-UDP-GlcNAc]', 4.95),
  ('CC(=O)N[C@H]1[C@@H](OP(=O)(O)OP(=O)(O)OC[C@H]2O[C@@H](n3ccc(=O)[nH]c3=O)[C@H](O)[C@@H]2O)O[C@H](CO)[C@@H](O)[C@@H]1O [UDP-GlcNAc]', 4.79);

Q. Any idea what pKd came out for O=C(N[C@H]1[C@@H](OP(=O)(O)OP(=O)(O)OC[C@H]2O[C@@H](n3ccc(=O)[nH]c3=O)[C@H](O)[C@@H]2O)O[C@H](CO)[C@@H](O)[C@@H]1O)C(F)(F)F [compound 2, UDP-GlcNAcF3] on hOGT (312-1031) (Homo sapiens)?
A. 4.92

* * *

# Kd annotations
Target: hOGT (312-1031) (Homo sapiens, UniProt O15294, D564N)
Sequence (O15294 322-1041 D564N): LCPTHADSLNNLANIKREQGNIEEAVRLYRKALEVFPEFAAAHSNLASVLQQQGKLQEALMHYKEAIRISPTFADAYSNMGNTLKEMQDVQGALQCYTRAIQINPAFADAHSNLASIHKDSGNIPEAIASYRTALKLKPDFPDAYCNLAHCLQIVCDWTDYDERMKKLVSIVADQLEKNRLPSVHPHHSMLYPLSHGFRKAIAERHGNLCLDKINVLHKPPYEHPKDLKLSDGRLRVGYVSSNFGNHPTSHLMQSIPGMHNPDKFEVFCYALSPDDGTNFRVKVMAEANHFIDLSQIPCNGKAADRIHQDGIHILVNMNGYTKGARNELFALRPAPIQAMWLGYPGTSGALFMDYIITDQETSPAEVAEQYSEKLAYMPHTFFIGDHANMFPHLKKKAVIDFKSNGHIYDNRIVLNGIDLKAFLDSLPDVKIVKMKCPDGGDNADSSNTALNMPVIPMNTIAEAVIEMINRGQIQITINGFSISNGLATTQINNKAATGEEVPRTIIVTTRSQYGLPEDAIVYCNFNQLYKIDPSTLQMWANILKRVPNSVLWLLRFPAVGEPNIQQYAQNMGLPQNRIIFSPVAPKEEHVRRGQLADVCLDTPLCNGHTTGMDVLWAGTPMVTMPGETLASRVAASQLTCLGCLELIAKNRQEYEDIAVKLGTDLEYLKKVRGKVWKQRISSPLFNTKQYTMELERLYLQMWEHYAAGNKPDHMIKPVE
Assay: surface plasmon resonance, […] equilibrium fit
Report field: quantity (unit follows the number).

INSERT INTO assay_data (molecule_smiles, experimental_value) VALUES
  ('CC(=O)N[C@H]1[C@@H](OP(=O)(O)OP(=O)(O)OC[C@H]2O[C@@H](n3ccc(=O)[nH]c3=O)[C@H](O)[C@@H]2O)O[C@H](CO)[C@@H](O)[C@@H]1O', '32.1 µM');

Q. Could you tell me which Kd is on file for O=c1ccn([C@@H]2O[C@H](COP(=O)(O)OP(=O)(O)O)[C@@H](O)[C@H]2O)c(=O)[nH]1 ?
A. 0.6 µM

* * *

pKd by entry:
Biological target: hOGT (312-1031) (Homo sapiens, UniProt O15294, K852M)
Sequence (O15294 322-1041 K852M): as the sequence (O15294 322-1041 D564N) above, with N243D, K531M counted along it
Assay: surface plasmon resonance, […] equilibrium fit
Bear in mind: pKd is minus log10 of a mol/L concentration; give just that figure.

INSERT INTO measurements (molecule, experimental_value) VALUES
  ('CC(=O)N[C@H]1[C@@H](OP(=O)(O)OP(=O)(O)OC[C@H]2O[C@@H](n3ccc(=O)[nH]c3=O)[C@H](O)[C@@H]2O)O[C@H](CO)[C@@H](O)[C@@H]1O [UDP-GlcNAc]', 5.33),
  ('O=C(N[C@H]1[C@@H](OP(=O)(O)OP(=O)(O)OC[C@H]2O[C@@H](n3ccc(=O)[nH]c3=O)[C@H](O)[C@@H]2O)O[C@H](CO)[C@@H](O)[C@@H]1O)C(F)(F)F [compound 2, UDP-GlcNAcF3]', 4.53),
  ('CC(=O)N[C@@H]1[C@@H](O)[C@H](O)[C@@H](CO)S[C@@H]1OP(=O)(O)OP(=O)(O)OC[C@H]1O[C@@H](n2ccc(=O)[nH]c2=O)[C@H](O)[C@@H]1O [compound 1, UDP-5S-GlcNAc]', 5.24);

Now, please, on to the next molecule.
Q. Fill in: pKd of CC(=O)N[C@H]1[C@@H](OP(=O)(O)O[P@](O)(=S)OC[C@H]2O[C@@H](n3ccc(=O)[nH]c3=O)[C@H](O)[C@@H]2O)O[C@H](CO)[C@@H](O)[C@@H]1O [compound 4, RP-αS-UDP-GlcNAc] is ___
A. 5.55
